These data points were gathered from the supplement of paper PMC10567573.

B1: LOXL2 (parent)
chain: FSPDGPSRFRKAYKPEQPLVRLRG

# Variants of: B1
# assayProcedure: protein stability index of a GFP-peptide fusion (GPS, HEK-293T) (PSI 1-6); higher = more stable;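 also: lentivirally expressed fusions sorted by FACS into six bins by GFP to DsRed ratio, PSI derived from sequencing read proportions per bin multiplied by bin number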
# measurementConditions: c terminus: a fixed tail appended
Give measured protein stability index for each item. Keep answers brief.
One number for each entry.

{"variantDesignation": "P18N", "assayResult": 2.75}

Hi there! I need protein stability index for each item below, if you can.
1. V20L
2. G24R
3. D4W
4. G5H
5. Y13S

Response line:
2
2.79
2.58
2.65
2.44

Hi there! I need protein stability index for each item below, if you can.
1. L19P
2. K11M
3. D4G

Response line:
1.23
2.98
1.98

Hi there! I need protein stability index for each item below, if you can.
1. L19H
2. K11T
3. K14W
4. Y13E
5. R23L
6. K14G
7. Y13A
8. L19W

Response line:
[1.45, 3.77, 1.99, 2.15, 1.37, 2.32, 2.05, 2.04]

Hi there! I need protein stability index for each item below, if you can.
1. A12H
2. P15G
3. F1W
4. S2L
5. P18D

Response line:
1: 1.8; 2: 2.48; 3: 3.12; 4: 1.92; 5: 2.04
